Origin of values: paper PMC9482650

biological target: SCRIB_2, Q14160; assay: holdup assay; set-up: key: below the threshold = too weak to quantify, mostly under pKd 3.1 to 4; conditions: plain residues with an end cap or a label only (N-terminal biotin on a linker: ado-ado)
Sequence (Q14160 857-960): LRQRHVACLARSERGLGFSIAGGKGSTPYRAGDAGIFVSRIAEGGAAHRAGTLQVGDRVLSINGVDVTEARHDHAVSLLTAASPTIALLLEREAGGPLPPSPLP
measurement_name: pKd

{"columns": ["binder", "measurement_name", "test_value"],
 "data": [
  ["TFSRRPKTRV [CD226, Q15762]", "pKd", 3.54],
  ["DYSNLRETDI [ADRA1D, P25100]", "pKd", 4.73],
  ["ELKAEDEVQI [DCHS2, Q6V1P9]", "pKd", "below the threshold"],
  ["SGDGKTSVWI [GJC1, P36383]", "pKd", "below the threshold"],
  ["TKEIPNCTSV [SORCS3, Q9UPU3]", "pKd", 4.44],
  ["PSVYSRSQYV [CLDN8, P56748]", "pKd", "below the threshold"],
  ["GDSSRKEYFI [GYPC, P04921]", "pKd", 3.69],
  ["GNDPDRGTSI [GRID2, O43424]", "pKd", "below the threshold"],
  ["KIEDVEITLV [FCHSD2, O94868]", "pKd", "below the threshold"],
  ["DSEEELPTRL [GRK6, P43250]", "pKd", "below the threshold"],
  ["AKADAQESRL [PLCB2, Q00722]", "pKd", "below the threshold"],
  ["THHRKIHTRV [ZNF599, Q96NL3]", "pKd", 4.15],
  ["VCMGDHWFDV [PRKN, O60260]", "pKd", "below the threshold"],
  ["NNMAFETTHF [SLC5A12, Q1EHB4]", "pKd", "below the threshold"],
  ["THREVKFTSL [CD46, P15529]", "pKd", 3.67],
  ["LLQEEWETVM [PTH1R, Q03431]", "pKd", "below the threshold"],
  ["DFKHTKSFII [JAM2, P57087]", "pKd", "below the threshold"],
  ["ATKDKKITTV [EXOC4, Q96A65]", "pKd", 3.49],
  ["QLGSPTADLA [SIPA1, Q96FS4]", "pKd", "below the threshold"],
  ["FLVTEFNVML [DFNB31, Q9P202]", "pKd", "below the threshold"],
  ["FVFESRKEIL [TBPL1, P62380]", "pKd", "below the threshold"],
  ["MLPANYVEAI [NEB, P20929]", "pKd", "below the threshold"],
  ["PGKKPEDSRV [SLCO2B1, O94956]", "pKd", "below the threshold"],
  ["QQGLLPHSSC [TYRO3, Q06418]", "pKd", "below the threshold"],
  ["DLLGGGSDSI [TNRC6B, Q9UPQ9]", "pKd", "below the threshold"],
  ["NTALVESEDL [PALLS, Q8WX93;Q8WX93-1]", "pKd", "below the threshold"],
  ["LPPPESESKV [KCNJ9, Q92806]", "pKd", "below the threshold"],
  ["KKTPVSRSHL [SLC22A3, O75751]", "pKd", "below the threshold"],
  ["QLKSGRDSTV [TMEM178A, Q8NBL3]", "pKd", 3.69],
  ["KAEEKPPSKV [SCN4B, Q8IWT1]", "pKd", "below the threshold"],
  ["EPAKETTTNV [SLC2A3, P11169]", "pKd", 3.68],
  ["KSRPENGTVC [TMEM178B, H3BS89]", "pKd", "below the threshold"]
]}
